Catalogue of melting point readings, one per entry.

Some solved cases for reference:
Entry `COc1ccc(-n2nc(C(C)(C)C)cc2NC(=O)c2cccc3cc(Oc4cc(NCCN(C)C)ncn4)ccc23)cc1` ; melting point = 116 to 117 °C

Lookup result for COCc1cc(Oc2ccc3c(C(=O)Nc4ccc(C)c(C(F)(F)F)c4)cccc3c2)ncn1 [Example 18C] ; measured melting point: 188 °C

Reported melting point for `CS(=O)(=O)Nc1nccc(Oc2ccc3c(C(=O)Nc4ccc(F)c(C(F)(F)F)c4)cccc3c2)n1` was 246 °C

Recorded melting point (compound CC(C)(C)c1ccc(NC(=O)c2cccc3cc(Oc4cc(CO)ncn4)ccc23)cc1 [Example 18A] ): 202 to 203 °C

Quick note, melting point for `CCOC(=O)c1cc(Oc2ccc3c(C(=O)Nc4ccc(C(C)(C)C)cc4)cccc3c2)ncn1` landed at 177 to 178 °C

// below: melting point requested for another compound
For `O=C(Nc1ccc(Cl)c(C(F)(F)F)c1)N1COc2cc(Oc3ccnc(Cl)n3)ccc21` the compound record lists melting point as 140 to 142 °C

Reference for the values: patent US8133886B2
